# test.target: aldose reductase (Rattus norvegicus)
# Construct: the supernatant was used as the crude enzyme solution
# protocol.summary: Aldose reductase inhibiting activity
# test.settings: rat lens crude enzyme; DL-glyceraldehyde 10 mM, NADPH 0.104 mM, pH 6.2; Table 3; read-out: IC50 (50% inhibition concentration), aldose reductase
# IC50 annotations

{"structure.notation": "O=C(O)CN1C(=O)C(=CC=CCCl)SC1=S", "test.target": "aldose reductase (Rattus norvegicus)", "unit.info": "nM", "IC50": 130}
{"structure.notation": "CCC=C1SC(=S)N(CC(=O)O)C1=O", "test.target": "aldose reductase (Rattus norvegicus)", "unit.info": "nM", "IC50": 200}
{"structure.notation": "CCCC=CC=C1SC(=S)N(CC(=O)O)C1=O", "test.target": "aldose reductase (Rattus norvegicus)", "unit.info": "nM", "IC50": 40}
